Reference for the values: paper PMC10174255

Assignment: determine reported The maximum nontoxic concentration used for primary screening of drugs against CHIKV for the given compounds.
- Tested on: Vero CCL-81 cells
- test.method.notes: MTT cytotoxicity assay
- recorded.conditions: Vero CCL-81, ≥90% cell viability
Please reply with the bare figure in µM and do not write the unit itself.

Could you share which The maximum nontoxic concentration used for primary screening of drugs against CHIKV value was measured for Nc1cccc2c1CN(C1CCC(=O)NC1=O)C2=O (stereo not drawn) [Lenalidomide] ?
200

Could you share which The maximum nontoxic concentration used for primary screening of drugs against CHIKV value was measured for `CC(C)(C)C#Cc1cc(N(C(=O)[C@H]2CC[C@H](C)CC2)[C@H]2CC[C@H](O)CC2)c(C(=O)O)s1` ?
6.25

Could you share which The maximum nontoxic concentration used for primary screening of drugs against CHIKV value was measured for `CO[C@H]1C[C@@H]2CC[C@@H](C)[C@@](O)(O2)C(=O)C(=O)N2CCCC[C@H]2C(=O)O[C@H]([C@H](C)C[C@@H]2CC[C@@H](OC(=O)C(C)(CO)CO)[C@H](OC)C2)CC(=O)[C@H](C)/C=C(\C)[C@@H](O)[C@@H](OC)C(=O)[C@H](C)C[C@H](C)/C=C/C=C/C=C/1C` ?
50

Could you share which The maximum nontoxic concentration used for primary screening of drugs against CHIKV value was measured for `CC[C@H]1CN2CCc3cc(OC)c(OC)cc3[C@@H]2C[C@@H]1C[C@H]1NCCc2cc(OC)c(OC)cc21` ?
200

Could you share which The maximum nontoxic concentration used for primary screening of drugs against CHIKV value was measured for `C[C@@]12CCC[C@H]1[C@@H]1CC[C@H]3C[C@@H](O)CC[C@]3(C)[C@H]1CC2` ?
12.5

Could you share which The maximum nontoxic concentration used for primary screening of drugs against CHIKV value was measured for `COc1cc2c(cc1Cc1cccc(Cl)c1F)c(=O)c(C(=O)O)cn2[C@H](CO)C(C)C` ?
6.25

Could you share which The maximum nontoxic concentration used for primary screening of drugs against CHIKV value was measured for `Nc1nc(F)nc2nc[nH]c12` ?
100

Could you share which The maximum nontoxic concentration used for primary screening of drugs against CHIKV value was measured for `CC(C)Cn1c(=O)n(C)c(=O)c2[nH]cnc21` ?
50

Could you share which The maximum nontoxic concentration used for primary screening of drugs against CHIKV value was measured for `COc1cccc2c1C(=O)c1c(O)c3c(c(O)c1C2=O)C[C@@](O)(C(=O)CO)C[C@@H]3O[C@H]1C[C@H](N)[C@H](O)[C@H](C)O1` ?
25
